biological target: T1, biot-3K-Aβ42RR (UniProt P05067 672-713, biotin at the N-terminal end); assay: HTRF competition; unlabelled PS2NT displaces PS2NT-K from biot-Aβ42
T1 construct: domain: Aβ1-42; also called biot-Aβ42; biot-Aβ1-42
PROPERTY LABEL: pIC50
Quick note: pIC50 means taking -log10 of the concentration in moles per liter.

query: Give the reported value of pIC50 for this record: S-tag-PS2Nt (recombinant PS2NT protein produced in bacterium) (other, not shown: small tags and cut ends, also called unlabelled PS2NT) MLTFMASDSEEEVCDERTSLMSAESPTPRSCQEGRQGPEDGENTAQWRSQENEEDGEEDPDRYVCSGVPGRPPGLEEELTLKYGAKH
result: 6.40
